target-or-system: T1, human soluble urokinase plasminogen activator receptor (hsuPAR) (human, UniProt Q03405 23-303, limits assumed)
T1 construct: also called human suPAR; rhuPAR-His
T1 sequence (Q03405 23-303 limits assumed): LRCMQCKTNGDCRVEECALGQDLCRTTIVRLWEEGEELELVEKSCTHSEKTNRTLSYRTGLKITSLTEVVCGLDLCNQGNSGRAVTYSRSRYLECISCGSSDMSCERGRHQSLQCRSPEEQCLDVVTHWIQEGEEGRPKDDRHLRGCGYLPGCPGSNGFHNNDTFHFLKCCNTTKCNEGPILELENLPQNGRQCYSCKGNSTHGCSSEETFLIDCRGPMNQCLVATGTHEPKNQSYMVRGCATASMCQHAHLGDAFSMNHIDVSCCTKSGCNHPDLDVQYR
assay-name: off-rate screen of scFv clones (kdis), Octet BLI
parameter-measured: koff (s⁻¹)

>  <binder>
suPAR_DB04_E07 (scFv, V domains shown, scFv clone from phage display) VH: QVQLVQSGAEVKKPGASVKVSCKASGDTFTSYYIHWVRQAPGQGLEWMGWIDHENGNTIYDQKFQGRVTMTRDTSTSTVYMELSSLRSEDTAVYYCARGYDVDWFVYWGQGTLVTVSS VL: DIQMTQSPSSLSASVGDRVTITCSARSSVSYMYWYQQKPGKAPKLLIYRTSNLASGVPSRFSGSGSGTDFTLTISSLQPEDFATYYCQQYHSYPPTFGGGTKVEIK

>  <experimental-value>
0.00311

$$$$
>  <binder>
suPAR_DB04_C04 (scFv, V domains shown, scFv clone from phage display) VH: QVQLVQSGAEVKKPGASVKVSCKASGYTFTGYYMHWVRQAPGQGLEWMGWIDHENGNTSYDQKFQGRVTMTRDTSTSTVYMELSSLRSEDTAVYYCARGYDVDWFVYWGQGTLVTVSS VL: DIQMTQSPSSLSASVGDRVTITCSASQSVSYMYWYQQKPGKAPKLLIYRTSNLASGVPSRFSGSGSGTDFTLTISSLQPEDFATYYCQQYHSYPPTFGGGTKVEIK

>  <experimental-value>
0.00229

$$$$
